- PROTOCOL DETAILS: chemical genetic growth profiling, strain panel (AID 1159580);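 further: tested at 20 µM; growth read once vehicle control cultures reached saturation at 30 °C; 1 = growth at the plate median or of vehicle wells; lower values mean less growth of the strain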
- SETTINGS: S. cerevisiae strains, growth OD, strain wild type, stronger effect = lower value
The whole screen tested about 5,500 compounds, of which about 2,000 (36%) were called active. Another 18% or so got no clear call; they are omitted. Some of the results follow.
The compounds listed here are annotated with their normalized growth.

| ITEM SMILES | normalized growth |
| --- | --- |
| COC(=O)c1c(C)c2c(c(C)c1OC)OC(=O)c1c(C)c(Cl)c(OC)c(Cl)c1O2 | 1.02 |
| COc1cc(C/C=C/c2ccccc2)c(OC)cc1O | 0.98 |
| O=[N+]([O-])c1ccc(N2CCOCC2)cc1 | 0.982 |
